# subject-of-test: HCV genotype 1b (BK) NS3 modified with a R155K mutation (Hepatitis C virus genotype 1b, UniProt P26663, R1181K)
# Construct: HCV genotype 1b (BK) NS3 modified with a R155K mutation
# assay-procedure: HCV NS3 protease time-resolved fluorescence (TRF) assay, NS3 protease 1b R155K Ki activity
# measurement-parameters: HCV genotype 1b (BK) NS3 with R155K mutation; TRF peptide substrate 100 nM; Ki derived from IC50
Provide the recorded Ki for the entries that follow.

CC[C@@H]1C[C@]1(NC(=O)[C@@H]1C[C@@H]2CN1C(=O)[C@H](C1CCCC1)NC(=O)O[C@@H]1CCC[C@H]1CCCCCn1c(cc3cc(Cl)ccc3c1=O)O2)C(=O)NS(=O)(=O)C1CC1: 0.1 to 0.5 nM
C=C[C@@H]1C[C@]1(NC(=O)[C@@H]1C[C@@H]2CN1C(=O)[C@H](C(C)(C)C)NC(=O)O[C@@H]1CCC[C@H]1C/C=C/CCn1c(cc3cc(OC)ccc3c1=O)O2)C(=O)NS(=O)(=O)C1CC1: 0.1 to 0.5 nM

Next compound, Ki to be filled in.
stdin: Param item = `CC[C@@H]1C[C@]1(NC(=O)[C@@H]1C[C@@H]2CN1C(=O)[C@H](C(C)(C)C)NC(=O)O[C@H]1CCC[C@@H]1CCCCCCn1c(cc3ccccc3c1=O)O2)C(=O)NS(=O)(=O)C1CC1` ; retrieve measured Ki.
stdout: 1 to 5 nM

====

Provide the recorded Ki for the entries that follow.
# subject-of-test: HCV genotype 1b (BK) NS3 modified with a R155K mutation (Hepatitis C virus genotype 1b, UniProt P26663, R1181K)
# Construct: HCV genotype 1b (BK) NS3 modified with a R155K mutation
# assay-procedure: HCV NS3 protease time-resolved fluorescence (TRF) assay, NS3 protease 1b R155K Ki activity
# measurement-parameters: HCV genotype 1b (BK) NS3 with R155K mutation; TRF peptide substrate 100 nM; Ki derived from IC50

C=C[C@@H]1C[C@]1(NC(=O)[C@@H]1C[C@@H]2CN1C(=O)[C@H](C1CCCC1)NC(=O)O[C@@H]1CCC[C@H]1CC/C=C/Cc1c(nc3ccccn3c1=O)O2)C(=O)NS(=O)(=O)C1CC1: < 100 pM
CC[C@@H]1C[C@]1(NC(=O)[C@@H]1C[C@@H]2CN1C(=O)[C@H](C1CCCC1)NC(=O)O[C@@H]1CCC[C@H]1CCCCCn1c(cc3ccc(F)cc3c1=O)O2)C(=O)NS(=O)(=O)C1CC1 [Example 16]: 100 to 500 pM
CC[C@@H]1C[C@]1(NC(=O)[C@@H]1C[C@@H]2CN1C(=O)[C@H](C1CCCC1)NC(=O)O[C@@H]1C[C@H]1CCCCCn1c(cc3ccccc3c1=O)O2)C(=O)NS(=O)(=O)C1CC1: 100 to 500 pM
C=C[C@@H]1C[C@]1(NC(=O)[C@@H]1C[C@@H]2CN1C(=O)[C@H](C1CCCC1)NC(=O)O[C@@H]1CCC[C@H]1CC/C=C/Cn1c(nc3c(OC)cccc3c1=O)O2)C(=O)NS(=O)(=O)C1CC1 [Example 51]: < 100 pM
CC[C@@H]1C[C@]1(NC(=O)[C@@H]1C[C@@H]2CN1C(=O)[C@H](C1CCCC1)NC(=O)O[C@@H]1CCC[C@H]1CCCCCn1c(nc3cc(OC)ccc3c1=O)O2)C(=O)NS(=O)(=O)C1CC1: 100 to 500 pM
C=C[C@@H]1C[C@]1(NC(=O)[C@@H]1C[C@@H]2CN1C(=O)[C@H](C1CCCC1)NC(=O)O[C@@H]1CCC[C@H]1CCCCCn1c(cc3cc(Cl)ccc3c1=O)O2)C(=O)NS(=O)(=O)C1CC1: < 100 pM
CC[C@@H]1C[C@]1(NC(=O)[C@@H]1C[C@@H]2CN1C(=O)[C@H](C(C)(C)C)NC(=O)O[C@@H]1CCC[C@H]1CCCCCn1c(cc3cc(OC)ccc3c1=O)O2)C(=O)NS(=O)(=O)C1CC1: 100 to 500 pM
CC[C@@H]1C[C@]1(NC(=O)[C@@H]1C[C@@H]2CN1C(=O)[C@H](C1CCCC1)NC(=O)O[C@@H]1CCC[C@H]1CC/C=C/Cn1c(nc3cc(Cl)ccc3c1=O)O2)C(=O)NS(=O)(=O)C1CC1: 100 to 500 pM
C=C[C@@H]1C[C@]1(NC(=O)[C@@H]1C[C@@H]2CN1C(=O)[C@H](C1CCCC1)NC(=O)O[C@@H]1CCC[C@H]1CCC=CCn1c(cccc1=O)O2)C(=O)NS(=O)(=O)C1CC1 [Example 81]: 100 to 500 pM
CC[C@@H]1C[C@]1(NC(=O)[C@@H]1C[C@@H]2CN1C(=O)[C@H](C1CCCC1)NC(=O)O[C@@H]1CCC[C@H]1CC/C=C/Cn1c(nc3cc(S(C)(=O)=O)ccc3c1=O)O2)C(=O)NS(=O)(=O)C1CC1: < 100 pM

Could you report Ki for every entry in the following list?
1. C=C[C@@H]1C[C@]1(NC(=O)[C@@H]1C[C@@H]2CN1C(=O)[C@H](C1CCCC1)NC(=O)O[C@@H]1CCC[C@H]1CCCCCn1c(cccc1=O)O2)C(=O)NS(=O)(=O)C1CC1
2. C=C[C@@H]1C[C@]1(NC(=O)[C@@H]1C[C@@H]2CN1C(=O)[C@H](C(C)(C)C)NC(=O)O[C@@H]1CCC[C@H]1CCCCCCn1c(cc3ccccc3c1=O)O2)C(=O)NS(=O)(=O)C1CC1

stdout:
1. 100 to 500 pM
2. 100 to 500 pM
